# Test system: Pseudomonas aeruginosa
# assay details: Antimicrobial activity against extended spectrum beta-lactamases-producing Pseudomonas aeruginosa 10-15 after 18-24 hrs by two-fold serial dilution method
# Assay type: functional
Below, each entry is listed alongside its reported MIC.

compound: CS(=O)(=O)O.NCC1CN(c2nc3c(cc2F)c(=O)c(C(=O)O)cn3C2CC2)C/C1=N\OCc1ccccc1 (racemic)
prefix operator: =
MIC / µg/mL: 4
--
compound: COc1ccc(CO/N=C2\CN(c3nc4c(cc3F)c(=O)c(C(=O)O)cn4C3CC3)CC2CN)c(OC)c1.CS(=O)(=O)O (racemic)
prefix operator: =
MIC / µg/mL: 8
--
compound: C[C@H]1COc2c(N3CCN(C)CC3)c(F)cc3c(=O)c(C(=O)O)cn1c23.C[C@H]1COc2c(N3CCN(C)CC3)c(F)cc3c(=O)c(C(=O)O)cn1c23.O [LEVOFLOXACIN]
prefix operator: =
MIC / µg/mL: 0.5
--
compound: COc1cc(CO/N=C2\CN(c3nc4c(cc3F)c(=O)c(C(=O)O)cn4C3CC3)CC2CN)cc(Cl)c1OC.CS(=O)(=O)O (racemic)
prefix operator: =
MIC / µg/mL: 32
--
compound: CS(=O)(=O)O.NCC1CN(c2nc3c(cc2F)c(=O)c(C(=O)O)cn3C2CC2)C/C1=N\OCc1ccc2c(c1)OCCO2 (racemic)
prefix operator: =
MIC / µg/mL: 2
--
compound: COc1ccc(CO/N=C2\CN(c3nc4c(cc3F)c(=O)c(C(=O)O)cn4C3CC3)CC2CN)c(Cl)c1OC.CS(=O)(=O)O (racemic)
prefix operator: =
MIC / µg/mL: 32
--
compound: COc1cc(CO/N=C2\CN(c3nc4c(cc3F)c(=O)c(C(=O)O)cn4C3CC3)CC2CN)ccc1OCc1ccccc1.CS(=O)(=O)O (racemic)
prefix operator: =
MIC / µg/mL: 32
--
compound: CS(=O)(=O)O.NCC1CN(c2nc3c(cc2F)c(=O)c(C(=O)O)cn3C2CC2)C/C1=N\OCc1ccc2c(c1)OCO2 (racemic)
prefix operator: =
MIC / µg/mL: 4
--
compound: CS(=O)(=O)O.Cc1ccc(CO/N=C2\CN(c3nc4c(cc3F)c(=O)c(C(=O)O)cn4C3CC3)CC2CN)cc1C (racemic)
prefix operator: =
MIC / µg/mL: 8
--
compound: COc1ccc(OC)c(CO/N=C2\CN(c3nc4c(cc3F)c(=O)c(C(=O)O)cn4C3CC3)CC2CN)c1.CS(=O)(=O)O (racemic)
prefix operator: >
MIC / µg/mL: 128
--
compound: COc1cccc(CO/N=C2\CN(c3nc4c(cc3F)c(=O)c(C(=O)O)cn4C3CC3)CC2CN)c1OC.CS(=O)(=O)O (racemic)
prefix operator: =
MIC / µg/mL: 8
--
compound: COc1ccc(CO/N=C2\CN(c3nc4c(cc3F)c(=O)c(C(=O)O)cn4C3CC3)CC2CN)cc1.CS(=O)(=O)O (racemic)
prefix operator: =
MIC / µg/mL: 8
--
compound: COc1cccc(OC)c1CO/N=C1\CN(c2nc3c(cc2F)c(=O)c(C(=O)O)cn3C2CC2)CC1CN.CS(=O)(=O)O (racemic)
prefix operator: =
MIC / µg/mL: 4

###

# System: Pseudomonas aeruginosa
# assay details: Antimicrobial activity against Pseudomonas aeruginosa 10-12 after 18-24 hrs by two-fold serial dilution method
# Format: functional

compound: COc1ccc(OC)c(CO/N=C2\CN(c3nc4c(cc3F)c(=O)c(C(=O)O)cn4C3CC3)CC2CN)c1.CS(=O)(=O)O (racemic)
tested target: Pseudomonas aeruginosa
prefix operator: >
MIC, µg/mL: 128
//
compound: COc1cc(CO/N=C2\CN(c3nc4c(cc3F)c(=O)c(C(=O)O)cn4C3CC3)CC2CN)c([N+](=O)[O-])cc1OC.CS(=O)(=O)O (racemic)
tested target: Pseudomonas aeruginosa
prefix operator: =
MIC, µg/mL: 16
//
compound: COc1cc(CO/N=C2\CN(c3nc4c(cc3F)c(=O)c(C(=O)O)cn4C3CC3)CC2CN)cc(OC)c1OC.CS(=O)(=O)O (racemic)
tested target: Pseudomonas aeruginosa
prefix operator: =
MIC, µg/mL: 0.125
//
compound: CS(=O)(=O)O.NCC1CN(c2nc3c(cc2F)c(=O)c(C(=O)O)cn3C2CC2)C/C1=N\OCc1ccccc1 (racemic)
tested target: Pseudomonas aeruginosa
prefix operator: =
MIC, µg/mL: 4
//
compound: COc1ccc(CO/N=C2\CN(c3nc4c(cc3F)c(=O)c(C(=O)O)cn4C3CC3)CC2CN)c(OC)c1.CS(=O)(=O)O (racemic)
tested target: Pseudomonas aeruginosa
prefix operator: =
MIC, µg/mL: 0.06
//
compound: COc1cc(F)c(CO/N=C2\CN(c3nc4c(cc3F)c(=O)c(C(=O)O)cn4C3CC3)CC2CN)cc1OC.CS(=O)(=O)O (racemic)
tested target: Pseudomonas aeruginosa
prefix operator: >
MIC, µg/mL: 128
//
compound: CS(=O)(=O)O.NCC1CN(c2nc3c(cc2F)c(=O)c(C(=O)O)cn3C2CC2)C/C1=N\OCc1ccc(OCc2ccccc2)cc1 (racemic)
tested target: Pseudomonas aeruginosa
prefix operator: =
MIC, µg/mL: 16
